target desc: Sodium- and chloride-dependent GABA transporter 1 (Mus musculus)
assay explanation: Remaining GABA uptake at murine GAT-1 expressed in HEK293 cells at 100 uM relative to control

compound | remaining GABA uptake (%)
COc1ccc(C(OCCNC(C)CC(=O)O)(c2ccc(OC)cc2)c2ccc(OC)cc2)cc1 (racemic) | 114
COc1ccc(C(/C=C/CNC(C)CC(=O)O)(c2ccc(OC)cc2)c2ccc(OC)cc2)cc1 (racemic) | 52
COc1ccc(C(/C=C/CNCCC(=O)O)(c2ccc(OC)cc2)c2ccc(OC)cc2)cc1 | 77
COc1ccc(C(OCCNCCC(=O)O)(c2ccc(OC)cc2)c2ccc(OC)cc2)cc1 | 57
O=C(O)CCNCCOCCN1c2ccccc2C=Cc2ccccc21 | 56

====

target desc: GABA transporter 2 (Mus musculus)
assay explanation: Remaining GABA uptake at murine BGT-1 expressed in HEK293 cells at 100 uM relative to control
Decide using remaining GABA uptake alone. Strictly below 70%: Condition met. Equal to or above 70%: Condition not met.

compound | cat
COc1ccc(C(OCCNC(C)CC(=O)O)(c2ccc(OC)cc2)c2ccc(OC)cc2)cc1 (racemic) | Condition not met
O=C(O)CCNCCOCCN1c2ccccc2CCc2ccccc21 | Condition not met
COc1ccc(C(/C=C/CNCCC(=O)O)(c2ccc(OC)cc2)c2ccc(OC)cc2)cc1 | Condition met
CC(CC(=O)O)NCCOCCN1c2ccccc2Sc2ccccc21 (racemic) | Condition not met
O=C(O)CCNCCOCCN1c2ccccc2C=Cc2ccccc21 | Condition not met
CC(CC(=O)O)NCCC=C(c1ccccc1)c1ccccc1 (racemic) | Condition not met
O=C(O)CCNCCOCCN1c2ccccc2Sc2ccccc21 | Condition not met
COc1ccc(C(OCCNCCC(=O)O)(c2ccc(OC)cc2)c2ccc(OC)cc2)cc1 | Condition met
COc1ccc(C(/C=C/CNC(C)CC(=O)O)(c2ccc(OC)cc2)c2ccc(OC)cc2)cc1 (racemic) | Condition met
CC(CC(=O)O)NCCOCCN1c2ccccc2C=Cc2ccccc21 (racemic) | Condition not met

====

target desc: GABA transporter 3 (Mus musculus)
Sequence (whole entry): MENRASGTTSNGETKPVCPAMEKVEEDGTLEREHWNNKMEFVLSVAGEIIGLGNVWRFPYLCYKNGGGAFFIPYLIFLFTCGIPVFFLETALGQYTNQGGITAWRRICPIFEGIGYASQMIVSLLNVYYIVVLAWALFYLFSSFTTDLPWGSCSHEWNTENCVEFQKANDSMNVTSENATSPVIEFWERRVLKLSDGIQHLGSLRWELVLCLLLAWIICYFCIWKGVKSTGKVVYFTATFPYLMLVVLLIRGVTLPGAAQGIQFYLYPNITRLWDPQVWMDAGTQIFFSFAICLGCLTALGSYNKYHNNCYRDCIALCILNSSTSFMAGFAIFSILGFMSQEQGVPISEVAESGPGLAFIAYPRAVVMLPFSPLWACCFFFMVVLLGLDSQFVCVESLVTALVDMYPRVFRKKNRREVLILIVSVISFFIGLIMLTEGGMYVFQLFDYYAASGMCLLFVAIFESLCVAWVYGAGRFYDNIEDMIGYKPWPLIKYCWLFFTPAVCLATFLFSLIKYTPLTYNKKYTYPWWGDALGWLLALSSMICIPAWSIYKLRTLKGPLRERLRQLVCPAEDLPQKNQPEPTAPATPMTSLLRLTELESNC
assay explanation: Remaining GABA uptake at murine GAT-2 expressed in HEK293 cells at 100 uM relative to control

molecule | target desc | remaining GABA uptake / %
CC(CC(=O)O)NCCOCCN1c2ccccc2C=Cc2ccccc21 (racemic) | GABA transporter 3 (Mus musculus) | 84
O=C(O)CCNCCOCCN1c2ccccc2C=Cc2ccccc21 | GABA transporter 3 (Mus musculus) | 87
COc1ccc(C(OCCNCCC(=O)O)(c2ccc(OC)cc2)c2ccc(OC)cc2)cc1 | GABA transporter 3 (Mus musculus) | 40
